Overview of recorded EC50 for various compounds
Tested System: rat EP4 receptor (Rattus norvegicus)
Construct: cells seeded on STEP plates
Sequence (P43114 whole entry): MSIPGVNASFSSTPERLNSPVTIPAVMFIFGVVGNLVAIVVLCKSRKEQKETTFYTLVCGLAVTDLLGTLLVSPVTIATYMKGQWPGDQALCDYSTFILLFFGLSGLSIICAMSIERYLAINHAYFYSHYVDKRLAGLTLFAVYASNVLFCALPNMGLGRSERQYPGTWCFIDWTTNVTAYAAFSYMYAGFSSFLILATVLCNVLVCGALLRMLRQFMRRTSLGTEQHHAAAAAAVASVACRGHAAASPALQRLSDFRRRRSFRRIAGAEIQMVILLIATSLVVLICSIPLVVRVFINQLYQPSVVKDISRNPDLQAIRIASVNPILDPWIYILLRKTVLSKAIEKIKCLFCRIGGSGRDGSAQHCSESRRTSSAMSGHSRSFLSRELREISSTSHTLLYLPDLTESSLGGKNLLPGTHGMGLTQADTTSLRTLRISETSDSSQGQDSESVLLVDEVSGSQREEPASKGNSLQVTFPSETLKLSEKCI
Method: SEAP activity assay on EP4 STEP plate
Format: cell-based
Condition Label: SEAP luminescence, 6-8 hours of stimulation; read-out: STEP cell functional assay EC50 SEAP/EP4
Measured Attribute: EC50 (nM)

{"Compound": "CC(CC#Cc1ccccc1)[C@H](O)/C=C/[C@H]1CCC(=O)N1CCCc1ccc(C(=O)O)s1 (stereo partly shown) [Example 18C]", "Tested System": "rat EP4 receptor (Rattus norvegicus)", "Measured Attribute": "EC50", "Qualifying Sign": "<", "Measured Number": 0.01}
{"Compound": "CC(CC#Cc1ccccc1)[C@H](O)/C=C/[C@H]1CCC(=O)N1CCCCCCC(=O)O (mixture of isomers)", "Tested System": "rat EP4 receptor (Rattus norvegicus)", "Measured Attribute": "EC50", "Qualifying Sign": "=", "Measured Number": 2.49}
{"Compound": "CCC#CCC(C)[C@H](O)/C=C/[C@H]1CCC(=O)N1C/C=C\\c1ccc(C(=O)O)s1 (mixture of isomers) [Example 15C]", "Tested System": "rat EP4 receptor (Rattus norvegicus)", "Measured Attribute": "EC50", "Qualifying Sign": "=", "Measured Number": 947}
{"Compound": "CC#CCC(C)[C@@H](O)/C=C/[C@H]1CCC(=O)N1CCc1ccc(C(=O)OC)cc1 (mixture of isomers)", "Tested System": "rat EP4 receptor (Rattus norvegicus)", "Measured Attribute": "EC50", "Qualifying Sign": "=", "Measured Number": 1640}
{"Compound": "CC#CCC(C)[C@@H](O)/C=C/[C@H]1CCC(=O)N1CCc1ccc(C(=O)O)cc1 (mixture of isomers)", "Tested System": "rat EP4 receptor (Rattus norvegicus)", "Measured Attribute": "EC50", "Qualifying Sign": "=", "Measured Number": 13.4}
{"Compound": "O=C(O)CCCCCCN1C(=O)CC[C@@H]1/C=C/[C@@H](O)C#Cc1ccccc1", "Tested System": "rat EP4 receptor (Rattus norvegicus)", "Measured Attribute": "EC50", "Qualifying Sign": "=", "Measured Number": 22.3}
{"Compound": "CC#CCC(C)[C@@H](O)/C=C/[C@H]1CCC(=O)N1CCCCCCC(=O)O (mixture of isomers)", "Tested System": "rat EP4 receptor (Rattus norvegicus)", "Measured Attribute": "EC50", "Qualifying Sign": "=", "Measured Number": 4.82}
